Biological target: T1, Cynomolgus v6-peptide (cynomolgus, UniProt A0A2K5VJE0 387-429, N-terminal biotin)
T1 construct: domain: v6-region (43 amino acids); also called Cm v6-peptide; cm v6-peptide
T1 peptide: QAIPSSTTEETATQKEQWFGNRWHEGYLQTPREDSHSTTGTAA
Assay: SPR SCK, antibody immobilised, peptide injected
Endpoint label: koff (s⁻¹)
Use s⁻¹ as the unit, but write only the number.

- AL-MN114-444 IgG1 LALA IAHA (antibody, V domains shown, Human IgG1 LALA IAHA, kappa) VH: EVQLLESGGGLVQPGGSLRLSCAASGFTFRSFAMSWVRQAPGKGLEWVSAISGGGSSTFYADSVKGRFTISRDNSKNTLYLQMNSLRAEDTAVYYCARHYYSDSDYRSSAAMDYWGQGTLVTVSS VL: DIQMTQSPSSLSASVGDRVTITCRASQSIGSYLNWYQQKPGKAPKLLIYSASSLQSGVPSRFSGSGSGTDFTLTISSLQPEDFATYYCQQDLYLLTFGQGTKLEIK: 0.0079
- AL-MN114-71 IgG1 LALA IAHA (antibody, V domains shown, Human IgG1 LALA IAHA, kappa) VH: EVQLLESGGGLVQPGGSLRLSCAASGFSFRSFAMSWVRQAPGKGLEWVSAISGGGSSTFYADSVKGRFTISRDNSKNTLYLQMNSLRAEDTAVYYCARHYYSDSDYRSSAAMDYWGQGTLVTVSS VL: DIQMTQSPSSLSASVGDRVTITCRASQSISSYLNWYQQKPGKAPKLLIYAASTLQSGVPSRFSGSGSGTDFTLTISSLQPEDFATYYCQQDLYLLTFGQGTKLEIK: 0.0095

**Q:** Using the record for AL-MN114-132 IgG1 LALA IAHA (antibody, V domains shown, Human IgG1 LALA IAHA, kappa) VH: EVQLLESGGGLVQPGGSLRLSCAASGFTFSSYAMSWVRQAPGKGLEWVSAISGGGSSTYYADSVKGRFTISRDNSKNTLYLQMNSLRAEDTAVYYCARHYYSDSDYRSSAAMDYWGQGTLVTVSS VL: DIQMTQSPSSLSASVGDRVTITCRASQSISSYLNWYQQKPGKAPKLLIYAASSLQSGVPSRFSGSGSGTDFTLTISSLQPEDFATYYCQQDLYLLTFGQGTKLEIK , report its koff.
**A:** 0.014
